Entries and their residual activity values follow.
# target_under_test: Protein kinase C zeta type (Homo sapiens)
# condition_description: at 1 µM
Just the number please, in %, no unit attached.

>>> observed_value("CC[n+]1c(/C=C/N(C)c2ccccc2)n(-c2ccccc2)c2ccc(-c3nc4ccccc4s3)cc21")
107
>>> observed_value("CNc1cc2c(Nc3cccc(Br)c3)ncnc2cn1")
99
>>> observed_value("O=c1cc(-c2cccc3c2Sc2ccccc2S3)oc(N2CCOCC2)c1")
107
>>> observed_value("O=C(Nc1cccc(Nc2cc(Nc3cccc(C(F)(F)F)c3)ncn2)c1)C1CC1")
101

Query: Requested read-out residual activity, target or system Protein kinase C zeta type (Homo sapiens), entry "N#Cc1cnc2cnc(NCc3cccnc3)cc2c1Nc1ccc(F)c(Cl)c1"
Reply: 103

Query: Requested read-out residual activity, target or system Protein kinase C zeta type (Homo sapiens), entry "COc1ccc(C(=O)Nc2sc3c(c2C(N)=O)CCCC3)cc1OC"
Reply: 96

Query: Requested read-out residual activity, target or system Protein kinase C zeta type (Homo sapiens), entry "c1ccc2c(-c3ccncc3)c[nH]c2c1"
Reply: 94

* * *

# target_under_test: Serine/threonine-protein kinase WNK2 (Homo sapiens) (UniProt Q9Y3S1)
# Sequence (Q9Y3S1 whole entry): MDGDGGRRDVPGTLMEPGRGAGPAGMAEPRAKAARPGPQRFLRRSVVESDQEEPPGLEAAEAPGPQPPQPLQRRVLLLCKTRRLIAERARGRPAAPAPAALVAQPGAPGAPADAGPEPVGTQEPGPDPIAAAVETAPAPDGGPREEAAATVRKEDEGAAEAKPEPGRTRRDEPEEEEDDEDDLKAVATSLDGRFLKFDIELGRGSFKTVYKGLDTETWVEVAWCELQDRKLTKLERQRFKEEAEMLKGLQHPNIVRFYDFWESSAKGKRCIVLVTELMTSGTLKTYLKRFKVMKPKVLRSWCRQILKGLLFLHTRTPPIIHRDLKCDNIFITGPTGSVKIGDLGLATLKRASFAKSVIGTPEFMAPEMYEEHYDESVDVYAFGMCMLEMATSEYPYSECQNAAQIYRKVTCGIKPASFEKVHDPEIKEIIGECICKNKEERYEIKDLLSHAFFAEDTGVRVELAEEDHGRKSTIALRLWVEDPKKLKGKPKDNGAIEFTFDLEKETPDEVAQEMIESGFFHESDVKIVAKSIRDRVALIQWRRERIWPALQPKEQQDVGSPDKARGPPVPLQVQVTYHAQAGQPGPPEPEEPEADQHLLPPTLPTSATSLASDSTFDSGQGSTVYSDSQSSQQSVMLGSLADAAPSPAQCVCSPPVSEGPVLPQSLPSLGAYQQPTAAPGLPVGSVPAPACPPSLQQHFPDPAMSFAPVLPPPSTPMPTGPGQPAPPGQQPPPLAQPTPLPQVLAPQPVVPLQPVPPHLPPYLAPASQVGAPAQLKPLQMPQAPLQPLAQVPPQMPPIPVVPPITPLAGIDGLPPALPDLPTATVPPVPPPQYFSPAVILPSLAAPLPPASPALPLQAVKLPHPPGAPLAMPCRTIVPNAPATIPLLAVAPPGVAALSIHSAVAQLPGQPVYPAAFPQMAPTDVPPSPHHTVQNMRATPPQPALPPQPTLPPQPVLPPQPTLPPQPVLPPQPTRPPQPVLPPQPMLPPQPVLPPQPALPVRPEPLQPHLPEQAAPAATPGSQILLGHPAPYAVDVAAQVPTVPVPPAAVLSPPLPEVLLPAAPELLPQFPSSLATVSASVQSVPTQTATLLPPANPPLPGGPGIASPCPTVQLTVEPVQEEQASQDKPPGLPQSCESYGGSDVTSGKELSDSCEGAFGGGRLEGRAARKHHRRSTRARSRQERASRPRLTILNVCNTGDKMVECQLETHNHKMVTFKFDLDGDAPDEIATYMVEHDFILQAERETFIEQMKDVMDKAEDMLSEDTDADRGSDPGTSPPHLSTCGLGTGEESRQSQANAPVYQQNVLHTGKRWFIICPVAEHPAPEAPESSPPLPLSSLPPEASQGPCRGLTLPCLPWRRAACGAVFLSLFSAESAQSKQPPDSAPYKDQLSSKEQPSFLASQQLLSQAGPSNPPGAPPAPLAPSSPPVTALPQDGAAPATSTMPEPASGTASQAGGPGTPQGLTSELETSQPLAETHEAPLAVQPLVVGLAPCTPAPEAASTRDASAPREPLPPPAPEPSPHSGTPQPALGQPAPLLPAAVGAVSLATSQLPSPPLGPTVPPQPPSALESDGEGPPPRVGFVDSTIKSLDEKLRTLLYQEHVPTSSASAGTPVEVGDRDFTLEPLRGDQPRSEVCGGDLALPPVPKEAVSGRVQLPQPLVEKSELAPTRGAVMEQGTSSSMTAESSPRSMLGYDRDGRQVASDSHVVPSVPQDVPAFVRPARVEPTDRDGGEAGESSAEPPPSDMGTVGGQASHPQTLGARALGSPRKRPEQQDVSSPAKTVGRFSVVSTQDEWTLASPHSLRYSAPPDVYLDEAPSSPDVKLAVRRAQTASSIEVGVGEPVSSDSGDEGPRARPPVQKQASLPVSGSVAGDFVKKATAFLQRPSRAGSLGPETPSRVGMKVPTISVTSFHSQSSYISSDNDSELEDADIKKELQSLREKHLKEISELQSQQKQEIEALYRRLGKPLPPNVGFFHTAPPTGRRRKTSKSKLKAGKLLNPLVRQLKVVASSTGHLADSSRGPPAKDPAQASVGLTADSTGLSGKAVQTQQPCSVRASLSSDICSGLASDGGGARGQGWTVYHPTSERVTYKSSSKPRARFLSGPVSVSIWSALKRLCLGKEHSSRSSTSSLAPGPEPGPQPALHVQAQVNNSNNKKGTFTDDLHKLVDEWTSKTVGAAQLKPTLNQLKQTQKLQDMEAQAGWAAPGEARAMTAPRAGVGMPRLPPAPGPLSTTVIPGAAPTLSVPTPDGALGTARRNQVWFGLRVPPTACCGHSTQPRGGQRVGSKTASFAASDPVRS
# condition_description: at 10 µM
# Description: Millipore: Percentage of residual kinase activity of WNK2 at 10uM relative to control. Control inhibitor: Phosphoric acid* at 0.3uM. Buffer: 8 mM MOPS pH 7.0, 0.2 mM EDTA
recorded_metric: residual activity (%)
Just the number please, in %, no unit attached.

Look over these answered cases.
>>> observed_value("Cc1ccc(NC2=CC(=O)c3sc(C)nc3C2=O)cc1")
90
>>> observed_value("O=C1Nc2ccccc2/C1=C1/Nc2ccccc2/C1=N\\OCCC(O)CO (configuration not stated)")
40
>>> observed_value("c1ccc(-c2n[nH]c3c2oc2ccccc23)cc1")
74
>>> observed_value("CC(=O)c1ccc(N2CCOCC2)cc1O")
94
>>> observed_value("O=C1c2ccccc2-[n+]2ccc3c([nH]c4ccccc43)c21")
92
>>> observed_value("O=c1c2ccccc2[nH]c(=S)n1CCN1CCC(=C(c2ccc(F)cc2)c2ccc(F)cc2)CC1")
94

Query: Requested field: residual activity. Item: "COc1ccc(CNc2nc(N(CCO)CCO)nc3c2ncn3C(C)C)cc1"
Reply: 86

Query: Requested field: residual activity. Item: "Oc1ccc(-c2nc(-c3ccc(F)cc3)c(-c3ccncc3)[nH]2)cc1"
Reply: 84

Query: Requested field: residual activity. Item: "CCC(=O)Nc1ccc2ncnc(Nc3cccc(Br)c3)c2c1"
Reply: 80

Query: Requested field: residual activity. Item: "N#C/C(=C(\N)Sc1ccc(N)cc1)c1ccccc1C(F)(F)F"
Reply: 89

Query: Requested field: residual activity. Item: "C[C@@H](N)[C@H]1CC[C@H](C(=O)Nc2ccncc2)CC1"
Reply: 90

Query: Requested field: residual activity. Item: "CO[C@H]1[C@@H](OC)C[C@H](C)[C@@H](OC)C2=CC(=O)C=C(NC(=O)/C(C)=C/C=C/[C@H](OC)[C@@H](OC(N)=O)/C(C)=C/[C@@H]1C)C2=O"
Reply: 90

Query: Requested field: residual activity. Item: "Cc1cc(Nc2nc(-c3ccccc3)nc3ccccc23)n[nH]1"
Reply: 27

Query: Requested field: residual activity. Item: "Cc1cccc(-c2[nH]c(C(C)(C)C)nc2-c2ccc3c(c2)OCO3)n1"
Reply: 84

Query: Requested field: residual activity. Item: "CC(C)n1cnc2c(NCc3ccccc3)nc(NCCCO)nc21"
Reply: 89

Query: Requested field: residual activity. Item: "N#CC(C#N)=C(N)/C(C#N)=C/c1ccc(O)cc1"
Reply: 83

Query: Requested field: residual activity. Item: "O=C(Nc1cccc(Nc2nccc(Nc3cccc(C(F)(F)F)c3)n2)c1)C1CC1"
Reply: 50

Query: Requested field: residual activity. Item: "Oc1n[nH]c2nnc(-c3c(-c4ccccc4)nn4ccccc34)cc12"
Reply: 86

Query: Requested field: residual activity. Item: "COc1cccc(-c2cc(=O)c3ccccc3o2)c1N"
Reply: 102
